Value source: patent US20240182536A1

# assay system: T1, IL-18 receptors on HEK-Blue IL-18 reporter cells (UniProt Q13478 19-541; O95256 20-599, limits assumed); further: unit not given here
# T1 sequence (looked up) 1: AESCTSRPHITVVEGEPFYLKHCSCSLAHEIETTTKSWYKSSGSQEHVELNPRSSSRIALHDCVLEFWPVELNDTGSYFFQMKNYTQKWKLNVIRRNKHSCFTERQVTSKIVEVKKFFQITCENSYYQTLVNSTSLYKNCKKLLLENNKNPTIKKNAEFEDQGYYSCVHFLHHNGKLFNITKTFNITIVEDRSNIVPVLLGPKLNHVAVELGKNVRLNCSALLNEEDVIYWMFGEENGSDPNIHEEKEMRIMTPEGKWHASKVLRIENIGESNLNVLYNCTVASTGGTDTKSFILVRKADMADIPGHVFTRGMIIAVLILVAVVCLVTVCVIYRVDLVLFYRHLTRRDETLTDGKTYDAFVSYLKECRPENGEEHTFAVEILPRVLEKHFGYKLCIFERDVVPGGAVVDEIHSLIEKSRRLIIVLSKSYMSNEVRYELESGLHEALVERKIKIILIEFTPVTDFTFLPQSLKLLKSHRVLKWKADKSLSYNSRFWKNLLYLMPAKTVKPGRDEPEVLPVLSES
# T1 sequence (looked up) 2: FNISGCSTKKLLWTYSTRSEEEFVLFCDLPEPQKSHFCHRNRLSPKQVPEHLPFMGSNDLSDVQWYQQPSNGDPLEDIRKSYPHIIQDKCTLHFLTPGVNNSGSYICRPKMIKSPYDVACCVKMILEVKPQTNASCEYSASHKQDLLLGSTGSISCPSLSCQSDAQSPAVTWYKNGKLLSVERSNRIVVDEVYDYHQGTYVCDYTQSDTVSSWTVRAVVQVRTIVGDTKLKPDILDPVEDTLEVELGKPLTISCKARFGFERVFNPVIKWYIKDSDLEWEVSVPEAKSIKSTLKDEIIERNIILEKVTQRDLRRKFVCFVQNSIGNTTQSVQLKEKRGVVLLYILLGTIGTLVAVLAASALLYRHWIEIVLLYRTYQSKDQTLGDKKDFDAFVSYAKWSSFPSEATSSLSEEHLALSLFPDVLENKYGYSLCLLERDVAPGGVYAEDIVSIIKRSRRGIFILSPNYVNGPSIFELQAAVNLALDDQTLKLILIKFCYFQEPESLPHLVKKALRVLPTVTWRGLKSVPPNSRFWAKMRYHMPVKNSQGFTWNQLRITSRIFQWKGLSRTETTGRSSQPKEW
# experimental details: cell-based or functional assay
readout: HEK-Blue activity, No BP, DF-10000
# answer = number (no unit)

Which HEK-Blue activity, No BP, DF-10000 is reported for this binder? IL-18 variant D23G, K53Y, S55Y (ligand) YFGKLESKLSVIRNLNDQVLFIGQGNRPLFEDMTDSDMRDNAPRTIFIISMYYDYQPRGMAVTISVKSEKISTLSSENKIISFKEMNPPDNIKDTKSDIIFFQRSVPGHDNKMQFESSSYEGYFLASEKERDLFKLILKKEDELGDRSIMFTVQNED
0.25

And for IL-18 variant T34N, S36Y, D40H, N41T, K53G, S55Y (ligand) YFGKLESKLSVIRNLNDQVLFIDQGNRPLFEDMNDYDMRHTAPRTIFIISMYGDYQPRGMAVTISVKSEKISTLSSENKIISFKEMNPPDNIKDTKSDIIFFQRSVPGHDNKMQFESSSYEGYFLASEKERDLFKLILKKEDELGDRSIMFTVQNED ?
0.12

And for IL-18 variant K53D, S55N, H109I (ligand) YFGKLESKLSVIRNLNDQVLFIDQGNRPLFEDMTDSDMRDNAPRTIFIISMYDDNQPRGMAVTISVKSEKISTLSSENKIISFKEMNPPDNIKDTKSDIIFFQRSVPGIDNKMQFESSSYEGYFLASEKERDLFKLILKKEDELGDRSIMFTVQNED ?
0.13
